recorded-endpoint: melting point

# count of solved cases: 10
molecule	readout-value
NC(=O)NCCS(=O)CC(O)CO (stereo unspecified)	102 °C
COC(=O)c1cc(I)c(O)c(C(C)(C)C)c1	67 °C
CCc1nc2c(N)nc(C)c(C)c2n1CCOCCN	152 to 154 °C
COC(=O)Nc1nc2cc(S(=O)CC3CCC3)ccc2[nH]1 (stereo unspecified)	198 to 206 °C
CCc1ccc2oc(C(=O)Nc3ccc(-c4ccc(S(=O)(=O)NC(C(=O)O)C(C)C)cc4)cc3)c(C)c2c1OCc1ccccc1 (stereo unspecified)	224 to 226 °C
Nc1nc2c(c(=O)[nH]1)CCCC2	> 300 °C
C[C@H](NC(=O)OC(C)(C)C)C(=O)OCCCCNc1cccc2c1C(=O)c1ccccc1C2=O	100 °C
CNC(=O)Nc1snc(C)c1[N+](=O)[O-]	249 to 251 °C
N#Cc1cc(N2C(=O)C3=C(CCCC3)C2=O)c(F)cc1Cl	160 to 162 °C
CCOC(=O)c1cc(CC)sc1Nc1ccc(C(F)F)cc1[N+](=O)[O-]	88 to 90 °C

Recorded result, `Sc1nnc(-c2cc3c(Oc4ccc(Cl)cc4)cncc3s2)o1` , melting point: 236 to 240 °C

###

# Lookup of reported melting point keyed by entry

molecule	melting point
COc1ccccc1N(CCN1CCC(C(=O)c2ccc(F)cc2)CC1)C(=O)c1ccc([N+](=O)[O-])cc1	166 to 168 °C
CC(=O)NCC1CN(c2cc(F)c(N3CCN(C(=O)COC(=O)c4ccc(N(C)C)cc4)CC3)c(F)c2)C(=O)O1 (centres undefined)	199 to 202 °C
NC(=S)c1ncn(C2OC(CO)C(O)C2O)n1 (centres undefined)	173 to 175 °C

Recorded result, CCOC(=O)C1=C(C(OCC)OCC)NC(C)=C(C(=O)OCc2ccccc2)C1c1ccccc1[N+](=O)[O-] (centres undefined) , melting point: 103 to 104 °C

###

# Lookup of reported melting point keyed by entry

# count of solved cases: 4
molecule	readout-value
COC1(c2ccccc2)C=CC(=O)C=C1	89 °C
O=C1COC(CNC(=O)c2cccnc2Oc2ccc(F)cc2)CN1 (centres undefined)	157 to 159 °C
Cc1onc(-c2ccc(-c3cscn3)cc2)c1-c1ccc(S(N)(=O)=O)c(F)c1	216 °C
COC(=O)[C@H]1C[C@H](C(=O)O)Nc2cccc(Cl)c21 (relative stereo)	159 to 161 °C

Recorded result, `CC1=C(C(=O)OCCO)C(c2ccccc2C(F)(F)F)C(C(=O)OCCO)=C(C)N1` , melting point: 125 to 127 °C

Recorded result, `CN(C)CCOc1c(-c2ccc(S(C)(=O)=O)cc2)cnn(-c2cccc(Cl)c2)c1=O` , melting point: 110 to 113 °C

Recorded result, O=C(NC(CCl)c1ccc(-c2ccc(S(=O)(=O)C(F)F)cc2)cc1)c1c(F)cccc1F (centres undefined) , melting point: 146 to 149 °C

Recorded result, COc1c(C)c2c(c(OS(=O)(=O)c3ccc(C)cc3)c1CC1=C(C)C(O)CC1)C(=O)OC2 (centres undefined) , melting point: 108 to 112 °C

Recorded result, `Cc1cc(SCc2cccc(C(F)(F)F)c2)c(C)cc1N` , melting point: 58 to 60 °C

###

recorded-endpoint: melting point (°C)

A: Cc1cc(C)cc(N(CCO)Cc2ccc3nc(NCCCN4CCOCC4)n(Cc4nc(C)ccc4O)c3c2)c1
B: CN(C)C(=O)Sc1ccc(C(=O)c2ccccc2C#N)cc1
Look at A and B . Which one has the lower recorded melting point number? In your reply, give the label of the chosen option.
B
(B: 112 °C, A: 180 °C)

###

# Lookup of reported melting point keyed by entry

# count of solved cases: 3
molecule	recorded-endpoint	readout-value
CC[Si](CC)(CC)O[C@@H](C(=O)OC)[C@@H](NC(=O)OC(C)(C)C)c1ccc(C(N)=O)cc1	melting point	165 °C
COc1ccc(-c2cc(=O)n(Cc3c(Cl)cccc3Cl)nc2-c2ccc(OC)cc2)cc1	melting point	144 °C
CCc1cc(NC(=O)N2CCN(c3cc(N4CCCC4)nc(N4CCCC4)n3)CC2)c(OC)nc1C	melting point	162 to 166 °C

Recorded result, `Cc1cccc2c(Cl)c(Cl)sc12` , melting point: 48 to 50 °C

Recorded result, CCCCOCC(COCc1ccccc1)OCn1cnc2c(O)nc(NC(C)=O)nc21 (stereo not given) , melting point: 139 to 141 °C

###

# Lookup of reported melting point keyed by entry

# count of solved cases: 8
compound	readout-value
COc1ccc(CCN(C)CCCCc2ccc(NC(=O)c3cccc4c(=O)c5ccccc5[nH]c34)cc2)cc1	143 °C
N=C(N)c1ccc(NC(C(=O)O)c2ccccc2OCC(=O)O)cc1 (racemic)	223 °C
CCCn1cc2c(C3C(=O)Nc4ccc(C#N)cc43)nc(NCCc3ccccn3)nc2n1 (centres undefined)	> 300 °C
OCC[C@H](O)COC(c1ccccc1)(c1ccccc1)c1ccccc1	68.8 to 70.9 °C
CC(CCC(=O)NN1CCN(C)CC1)C1CC=C2C3=C(CCC21C)C1(C)CCC(O)C(C)(C)C1CC3 (centres undefined)	189 to 191 °C
O=C(O)C1CCCCCCCSC[C@@H](C(=O)O)NC1=O (some centres undefined)	167 to 170 °C
O=C1COc2ccc(N3C(=O)C4=C(CCCC4)C3=O)cc2N1CC1CCOCC1	187 to 189 °C
Nc1nc2ccc3cc(Br)c([N+](=O)[O-])cc3c2c(=O)[nH]1	> 250 °C

Next up:
Recorded result, `Cc1cc(C)c(N[C@@H](C)C(=O)O)c(C)c1` , melting point: 318 to 320 °C

###

# Lookup of reported melting point keyed by entry

# count of solved cases: 3
molecule	melting point
Cc1ccc(C(=O)NC(=O)Nc2ccc3c(c2)NC(=O)/C3=C\c2ccc[nH]2)cc1	276 to 281 °C
c1ccc(SCCn2c(-c3ccccc3)nc3cc(CN4CCN(C(c5ccccc5)c5ccccc5)CC4)ccc32)cc1	118 to 125 °C
CCC1c2cccn2-c2ccc(Br)cc2N1S(=O)(=O)c1ccc(O)cc1 (centres undefined)	206 to 208 °C

Next up:
Recorded result, Cc1cnc(C(=O)O)cc1C(c1cc(F)ccc1F)S(=O)(=O)c1ccc(Cl)cc1 (centres undefined) , melting point: 105 to 107 °C

###

# Lookup of reported melting point keyed by entry

# count of solved cases: 4
compound	recorded-endpoint	readout-value
CCN(CC)CCCOc1ccc(C(=O)c2c(-c3ccc(OC)cc3)oc3ccccc23)cc1	melting point	102 to 110 °C
COC(=O)C1Oc2ccc(C)cc2Cc2cc(C)ccc2O1	melting point	158 to 160 °C
CCCCCCCCCCCc1nc(N)n[nH]1	melting point	128 to 132 °C
O=C(N[C@H](Cc1ccc(C(F)(F)F)cc1)[C@@H](O)c1ccc(F)cc1)c1cccc2c1C(=O)c1ccccc1-2 (racemic)	melting point	185 to 186 °C

Recorded result, `CCCOc1ccc(F)c2c(=O)c(-c3ccc(OC)cc3)c(CN3CCN(c4ccccn4)CC3)[nH]c12` , melting point: 211 to 212 °C

Recorded result, `COc1cc(OC)nc(Oc2cccnc2CO)n1` , melting point: 115 °C

Recorded result, `COc1ccc(C(=O)Nc2ccc(F)cc2)cc1NS(=O)(=O)c1cccc([N+](=O)[O-])c1` , melting point: 221 to 240 °C

Recorded result, `CCCCNC(=O)Nc1ccccc1CCc1cc(C(C)(C)C)c(O)c(C(C)(C)C)c1` , melting point: 133 to 134 °C

###

recorded-endpoint: melting point

molecule	recorded-endpoint	readout-value
CC(C)(C)c1cccc(CNC(c2ccccc2)C(NCc2cccc(C(C)(C)C)c2O)c2ccccc2)c1O (stereo unspecified)	melting point	143 to 144 °C
O=C(O)c1coc(Cl)c1	melting point	124 to 125 °C
C=Cc1ccc(S(=O)(=O)On2nnc3ccc(C=C)cc32)cc1	melting point	85 to 87 °C

Recorded result, `Brc1cccc2nc3[nH]c4ccccc4nc-3c12` , melting point: > 300 °C

Recorded result, OC1CC(NCc2ccccc2)c2ccccc21 (stereo unspecified) , melting point: 125 to 127 °C

Recorded result, `O=C1c2cccc(O)c2C2(OCCS2)c2c(O)cccc21` , melting point: 197 to 199 °C

###

# Lookup of reported melting point keyed by entry

compound	melting point
CNC(=O)NS(=O)(=O)c1cccc2c1OS(=O)(=O)C(C)C2 (centres undefined)	235 to 238 °C
COc1ccc(C2C(=O)NC(C)(C(C)C)C2=O)c(Cl)c1 (centres undefined)	130 to 140 °C
COC(=O)C[C@H](O)CC(=O)C=Cc1c(-c2ccc(F)cc2)c(-c2ccccc2)c(C(=O)NCc2ccc(F)cc2)n1C(C)C	62 to 63 °C

Recorded result, COc1ccc(C2CC(=O)N(c3ccnc(NC(=O)NCc4ccccn4)c3)C2)cc1 (centres undefined) , melting point: 159 to 161 °C

Recorded result, O=C1NC(=O)C(c2c[nH]c3ccccc23)C1C(=O)c1cn2c3c(cccc13)CCC2 (centres undefined) , melting point: 283 to 285 °C

Recorded result, `CCCCN1CCn2c1nc(C(=O)NCc1ccc(F)cc1C(=O)NC)c(O)c2=O` , melting point: 175 to 177 °C

Recorded result, COc1ccc(S(N)(=O)=O)cc1C(=O)NCC1CCCN1C1CC1 (centres undefined) , melting point: 163 °C

Recorded result, `O=C(Cc1ccc(F)cc1)NC1CCN(Cc2ccc(Cl)c(Cl)c2)CC1` , melting point: 144 to 147 °C

Recorded result, `Cc1cc2c(cc1C)N=C(c1ccc(-n3c(C)nc4cnccc43)cc1)CC(N)=N2` , melting point: 299 to 302 °C

Recorded result, `O=S(=O)(c1ccc(F)cc1)C(F)(F)C(F)(F)C(F)(F)C(F)(F)C(F)(F)C(F)(F)C(F)(F)C(F)(F)S(=O)(=O)c1ccc(F)cc1` , melting point: 109 to 110 °C

Recorded result, `NCCNC(=O)c1ccc(F)cc1` , melting point: 57 to 60 °C

Recorded result, Cc1ccc(C(=O)NC(NC(=S)Nc2cccnc2)C(F)(F)F)cc1 (centres undefined) , melting point: 185 to 186 °C

Recorded result, `O=c1c2c(Cc3cccc(OC(F)(F)F)c3)n[nH]c2c2cccnc2n1-c1cccc(OC(F)(F)F)c1` , melting point: 174 to 177 °C

Recorded result, `O=C(Nc1nccs1)c1cn(-c2ccccc2)c2ccccc2c1=O` , melting point: 290 °C

Recorded result, `CC(=O)Oc1ccc(C(=O)Nc2cccc(OCc3cncc4ccccc34)c2)cc1C(C)(C)C` , melting point: 83 to 86 °C

Recorded result, `COc1ccc2c(c1)C(=O)N(c1ccc(C(C)C)cn1)C2` , melting point: 109 to 110 °C
